Source listed as the Immune Epitope Database (IEDB).

Biological target: HLA-A*11:01
Assay: IEDB peptide-MHC binding, purified MHC/direct/fluorescence; filed as Kd, often an IC50 or EC50 that approximates it; bounds were set here for any values at or beyond the usual limits of such assays
Conditions: source organism: Brucella abortus
pKd: −log10 of the molar value.
measured.endpoint: pKd

In plain terms, GLAEKPNDY has a documented pKd of ≤ 4.70

###

Would you mind telling me the reported pKd of each entry?
Target: HLA-B*40:01
Experiment: IEDB peptide-MHC binding, purified MHC/competitive/radioactivity; filed as Kd, often an IC50 or EC50 that approximates it; bounds were set here for any values at or beyond the usual limits of such assays
Details: source organism: Dengue virus 2 Jamaica/1409/1983
Expect pKd as a plain number equal to -log10 of the molar concentration.

In plain terms, AEISGSSPI has a documented pKd of 9.18

In plain terms, EEIAVQNWL has a documented pKd of 7.83

In plain terms, MEAQLIRQM has a documented pKd of 6.10

In plain terms, VEDYGFGVF has a documented pKd of 6.50

###

Molecular target: HLA-B*44:02
Assay: IEDB peptide-MHC binding, purified MHC/direct/fluorescence; filed as Kd, often an IC50 or EC50 that approximates it; bounds were set here for any values at or beyond the usual limits of such assays
Details: source organism: Vibrio cholerae
measured.endpoint: Kd

In plain terms, FLHPKHWGT has a documented Kd of ≥ 20 µM

In plain terms, REVFDYLLP has a documented Kd of ≥ 20 µM

###

Molecular target: HLA-A*01:01
Experiment: IEDB peptide-MHC binding, purified MHC/competitive/radioactivity; filed as Kd, often an IC50 or EC50 that approximates it; bounds were set here for any values at or beyond the usual limits of such assays
Conditions: source organism: Variola virus
measured.endpoint: pKd
Expect pKd as a plain number equal to -log10 of the molar concentration.

In plain terms, QSDTVFDHY has a documented pKd of 8.02

###

Target: HLA-B*15:01
Test: IEDB peptide-MHC binding, purified MHC/competitive/radioactivity; filed as Kd, often an IC50 or EC50 that approximates it; bounds were set here for any values at or beyond the usual limits of such assays
Conditions: source organism: Dengue virus 3 Martinique/1243/1999
measured.endpoint: pKd
Expect pKd as a plain number equal to -log10 of the molar concentration.

RTNAAMGAVF on HLA-B*15:01 gives pKd = 7.71

###

Target: HLA-A*69:01
Test: IEDB peptide-MHC binding, purified MHC/direct/fluorescence; filed as Kd, often an IC50 or EC50 that approximates it; bounds were set here for any values at or beyond the usual limits of such assays
Conditions: source organism: Yersinia pestis
Would you mind telling me the reported pKd of each entry?
Expect pKd as a plain number equal to -log10 of the molar concentration.

In plain terms, FLPPQIPVI has a documented pKd of 5.33

In plain terms, FMSLQSGDV has a documented pKd of 5.87

###

Would you mind telling me the reported pKd of each entry?
Biological target: HLA-B*44:02
Experiment: IEDB peptide-MHC binding, purified MHC/competitive/radioactivity; filed as Kd, often an IC50 or EC50 that approximates it; bounds were set here for any values at or beyond the usual limits of such assays
Conditions: source organism: Dengue virus 3 Martinique/1243/1999
Expect pKd as a plain number equal to -log10 of the molar concentration.

In plain terms, KEISNMLSII has a documented pKd of 7.53

In plain terms, AEMEEALKGL has a documented pKd of 7.59

In plain terms, AETQNSSFI has a documented pKd of 8.57
